target-desc: human IL-21R expressed on cells (human, UniProt Q9HBE5 20-538)
Sequence (Q9HBE5 20-538 limits assumed): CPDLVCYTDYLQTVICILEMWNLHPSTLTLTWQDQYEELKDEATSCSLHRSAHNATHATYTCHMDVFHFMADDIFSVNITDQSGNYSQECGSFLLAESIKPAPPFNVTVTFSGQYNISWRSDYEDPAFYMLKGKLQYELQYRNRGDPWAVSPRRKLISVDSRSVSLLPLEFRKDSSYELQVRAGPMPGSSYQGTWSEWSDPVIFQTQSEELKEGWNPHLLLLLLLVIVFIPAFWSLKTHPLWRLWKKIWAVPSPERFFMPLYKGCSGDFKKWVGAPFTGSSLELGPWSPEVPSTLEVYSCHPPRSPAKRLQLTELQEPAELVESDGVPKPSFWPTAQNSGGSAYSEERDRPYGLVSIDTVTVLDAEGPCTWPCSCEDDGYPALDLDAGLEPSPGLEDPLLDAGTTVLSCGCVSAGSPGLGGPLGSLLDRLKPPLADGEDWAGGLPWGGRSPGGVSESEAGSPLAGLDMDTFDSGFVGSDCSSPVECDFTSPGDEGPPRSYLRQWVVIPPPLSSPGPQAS
method-description: cell-based or functional assay
quantity-name: Human IL-21R-BaF3 Proliferation IC50 (pM)

>>> meas_value("AbF (antibody, IgG1, V domains shown, As for AbA: IgG1/lambda, CDR3 graft, residue limits derived; also called VHP/VL17) VH: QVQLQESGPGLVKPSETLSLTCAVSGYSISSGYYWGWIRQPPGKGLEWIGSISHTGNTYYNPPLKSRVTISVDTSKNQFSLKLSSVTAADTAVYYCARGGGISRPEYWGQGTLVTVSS VL: SSELTQDPAVSVALGQTVRITCQGDSLRTYYASWYQQKPGQAPVLVIYGKHKRPSGIPDRFSGSSSGNTASLTITGAQAEDEADYYCSTRSRKGNPHVLFGGGTQLTVL")
540
>>> meas_value("AbP (antibody, human IgG1, V domains shown, CDR3 graft, residue limits derived as for m29; also called VHP/VL20; VHPTM/VL20) VH: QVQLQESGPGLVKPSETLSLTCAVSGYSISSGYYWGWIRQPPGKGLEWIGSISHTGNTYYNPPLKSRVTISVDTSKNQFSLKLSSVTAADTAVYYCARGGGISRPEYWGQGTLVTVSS VL: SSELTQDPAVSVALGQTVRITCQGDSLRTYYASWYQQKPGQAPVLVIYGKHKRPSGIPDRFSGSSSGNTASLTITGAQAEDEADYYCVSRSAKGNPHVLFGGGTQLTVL")
750
